// compounds with reported pIC50 on RAC-alpha serine/threonine-protein kinase (Homo sapiens), multi-publication
Answers are plain numbers, as −log10 of the molar value.

Example compounds with recorded pIC50:
N#Cc1ccc([C@@H](CN2CCC2)Nc2ncnc3c(C(N)=O)cccc23)cc1: 7.96
NC[C@H](Cc1ccc(Cl)c(Cl)c1)NC(=O)c1cc2c(s1)CCCn1ncc(Cl)c1-2: 8.86
COC1CCn2ncc(Cl)c2-c2cc(C(=O)N[C@H](CN)Cc3cccc(F)c3)sc21 (stereo partly drawn): 7.91
Cn1ncc(Cl)c1-c1cnc(C(=O)N[C@@H]2CNCC[C@H]2c2ccc(F)c(F)c2)c(F)c1: 8.10
CN(C)CC(=O)Nc1cccc(Nc2ncnc3[nH]cc(C(=O)c4ccccc4)c23)c1: 5.95

Each compound below has a reported value. Please supply its pIC50.
1. Cc1cc2ncc3cc(-c4ccccc4)c(-c4ccc([C@]5(N)C[C@@](O)(C6CC6)C5)cc4)nc3n2n1
2. Cc1cnn(C)c1-c1cnc(C(=O)N[C@@H]2CNCC[C@H]2c2ccc(F)c(F)c2)cc1F
3. CC(C)NC[C@@H](C(=O)N1[C@@H]2CC[C@H]1CN(c1ncnc3c1[C@H](C)C[C@H]3F)C2)c1ccc(Cl)cc1
4. Cn1ncc(Cl)c1-c1sc(C(=O)N[C@@H]2CNCC[C@H]2c2cccc(F)c2)cc1Cl
5. Cn1ncc(Cl)c1-c1cc(C(=O)N[C@H]2CNC[C@@H]2c2ccc(C(F)(F)F)cc2)oc1Cl (racemic)

1. 8.40
2. 6.20
3. 7.25
4. 9.15
5. 6.49

Go through the items and report each one's pIC50.
1. CCC[C@H]1CNC[C@@H](NC(=O)c2ccc(-c3c(Cl)cnn3C)s2)[C@@H]1c1cccc(F)c1
2. NC(=O)c1cccc2c(N[C@H](CN3CCC3)c3cc(F)ccc3Cl)ncnc12
3. Cn1ncc(Cl)c1-c1cc(C(=O)N[C@@H]2CNC(CC(=O)NCCO)C[C@H]2c2ccc(Cl)c(Cl)c2)oc1Cl (stereo partly drawn)
4. CC1C(=O)Nc2ncnc(N3CCC(c4nc(-c5ncco5)ccc4NCCN4CCCC4)CC3)c21 (stereo not drawn)

[9.00, 6.43, 10.00, 8.57]

----------
Compiled notes: published pIC50 values involving RAC-alpha serine/threonine-protein kinase (Homo sapiens, UniProt P31749).
Numbers only, as −log10 of the molar value.

Illustrative cases are given below, each with its answer.
C=CCC1C[C@@H](c2ccc(Cl)c(Cl)c2)[C@H](NC(=O)c2cc(-c3c(Cl)cnn3C)c(Cl)o2)CN1 (stereo partly shown): 8.70
NC[C@H](Cc1cc(F)cc(F)c1)NC(=O)c1cc2c(s1)OCCn1ncc(Br)c1-2: 8.84

Lab note: each molecule below needs its pIC50 filled in.
1. Cc1sc(C(=O)N[C@H]2CNCC[C@@H]2c2ccc(F)c(F)c2)cc1-c1c(Cl)cnn1C (racemic)
2. CCSc1cc2ncc3c(N)nc(-c4cncc(OC[C@@H](N)Cc5ccccc5)c4)cc3c2cc1OC

1. 6.92
2. 6.00

----------
Multiple publications report pIC50 for RAC-alpha serine/threonine-protein kinase (Homo sapiens, UniProt P31749); what follows is a combined list.
One number for each entry, as −log10 of the molar value.

CCOc1cc2ncc3c(N)nc(-n4ccnc4)cc3c2cc1NC(=O)Nc1ccc(N(C)C)cc1: 4.80
C[C@H]1CNC[C@@H](NC(=O)c2ccc(-c3c(Cl)cnn3C)s2)[C@@H]1c1cccc(F)c1: 8.52
NC(=O)c1cccc2c(N[C@H](CN3CCC3)c3cc(F)c(F)c(F)c3)ncnc12: 7.60
Cn1ncc(Cl)c1-c1cc(C(=O)N[C@@H]2CNCC[C@H]2c2ccc(C(F)(F)F)cc2)oc1Cl: 6.17
CCNC(=O)c1ccc2c(c1)-c1nc(-c3ccc(C4(N)CC(C)(O)C4)cc3)c(-c3ccccc3)n1CO2 (stereo not shown): 8.74

Look at each molecule and report its pIC50.
1. Cn1ncc(Br)c1-c1csc(C(=O)N[C@H]2CNCC[C@@H]2c2ccc(F)c(F)c2)c1
2. N#Cc1cnn2c1-c1cc(C(=O)N[C@H](CN)Cc3ccc(F)c(F)c3)sc1OCC2
3. CCN1CCN(CC/C=C/c2ccc3c(c2)ncc2c(N)nc(-n4ccnc4)cc23)CC1
4. Cc1cnn(C)c1-c1cnc(C(=O)N[C@H]2CNC[C@@H]2c2ccc(F)c(F)c2)cc1F (racemic)
5. CC1C(=O)Nc2ncnc(N3CCC(c4nc(-c5ccoc5)ccc4NCCN4CCCC4)CC3)c21 (stereo not shown)

[6.34, 7.56, 6.64, 7.06, 9.30]

----------
// compounds with reported IC50 on RAC-alpha serine/threonine-protein kinase (Homo sapiens, UniProt P31749), multi-publication
Numbers only, in nM.

In the examples that follow, each entry is paired with its recorded IC50.
CC(C)NCCNc1ccc(-c2nnc(C(F)F)s2)nc1C1CCN(c2ncnc3c2C(C)(C)C(=O)N3)CC1: 4.1
CCc1sc(C(=O)N[C@H]2CNCC[C@@H]2c2cnc3c(c2)CCC(C)C3)cc1-c1c(C(C)C)cnn1C (stereo partly shown): 5

Let us examine a further case.
Data request, read-out IC50, for C[C@@H]1C[C@@H](O)c2ncnc(N3CCN(C(=O)[C@H](CNCCCCc4cccc5c4C(=O)N(C4CCC(=O)NC4=O)C5=O)c4ccc(Cl)cc4)CC3)c21 (stereo partly shown) 1.8

----------
pIC50: −log10 of the molar value.
Below are pIC50 values for RAC-alpha serine/threonine-protein kinase (Homo sapiens) collected from several publications.
Is pIC50 at least 8? Then yes (1). If not, no (0).

Cn1ncc(Cl)c1-c1ccc(C(=O)N[C@@H]2CNC(CCNS(C)(=O)=O)C[C@H]2c2cccc(F)c2)cc1Cl (some centres unmarked): yes (1)
NC[C@H](Cc1ccccc1F)NC(=O)c1cc2c(s1)CCCn1ncc(Cl)c1-2: yes (1)

Now consider a different compound.
Please tell me: is the compound COc1cc2ncc3c(N)nc(-c4cncc(OC[C@@H](N)Cc5ccc(OCc6ccccc6)cc5)c4)cc3c2cc1OC at or over 8 in terms of pIC50? no (0)

----------
IC50 values for RAC-alpha serine/threonine-protein kinase (Homo sapiens, UniProt P31749) compiled from several publications are listed below.
One number for each entry, in nM.

C[C@@H]1C[C@@H](O)c2ncnc(N3CCN(C(=O)[C@H](CNCCCNC(=O)COc4cccc5c4C(=O)N(C4CCC(=O)NC4=O)C5=O)c4ccc(Cl)cc4)CC3)c21 (stereo partly shown): 3.93
Cc1cc(C(=O)N[C@H]2CNCC[C@@H]2C2CCCC(Cl)C2)ncc1-c1c(Cl)cnn1C (stereo partly shown): 362
Cn1nccc1-c1csc(C(=O)N[C@H]2CNCC[C@@H]2c2ccc(Cl)cc2)c1 (racemic): 123
COc1cc2ncc3c(N)nc(-c4cncc(O[C@@H]5CCNC5)c4)cc3c2cc1OC: 60

For every item in the list below, what is its measured IC50?
1. NC[C@H](Cc1ccc(F)c(F)c1)NC(=O)c1cc2c(s1)CCCn1ncc(Br)c1-2
2. COc1cc2c(cc1OCCCN1CCOCC1)ncc1c(N)nc(-n3ccnc3)cc12
3. Cn1ncc(Cl)c1-c1cc(C(=O)N[C@@H]2CNCC[C@H]2c2ccc(Cl)c(Cl)c2)oc1Cl
4. CC1C(=O)Nc2ncnc(N3CCC(c4nc(-c5ccnc(F)c5)ccc4NCCN4CCCC4)CC3)c21 (stereo not shown)
5. CN1CCC(NC(=O)c2cccc(Nc3ncnc4[nH]cc(C(=O)c5ccccc5)c34)c2)CC1
6. Cn1ncc(Cl)c1-c1ccc(C(=O)N[C@@H]2CNC(CCO)C[C@H]2c2ccc(F)c(F)c2)cc1 (stereo partly shown)

[0.27, 380, 118, 1.4, 1440, 9]

----------
Several publications report pIC50 on RAC-alpha serine/threonine-protein kinase (Homo sapiens, UniProt P31749); those values are gathered here.
One number for each entry, as −log10 of the molar value.

Illustrative cases are given below, each with its answer.
C[C@]1(O)C[C@@](N)(c2ccc(-c3nc4n(c3-c3ccccc3)COc3cccnc3-4)cc2)C1: 7.96
CC1(C)C(=O)Nc2ncnc(N3CCC(c4nc(-c5nc(C(F)(F)F)no5)ccc4NCCN4CCCC4)CC3)c21: 8.59
NC[C@H](Cc1ccccc1C(F)(F)F)NC(=O)c1cc2c(s1)CCCn1ncc(Cl)c1-2: 9.20
Cn1nccc1-c1coc(C(=O)N[C@H]2CNCC[C@@H]2c2ccccc2)n1 (racemic): 7.09
Nc1nc(-c2cncc(OC[C@@H](N)Cc3ccccc3)c2)cc2c1cnc1cc(C#CCCn3ccnc3)ccc12: 6.30

I would be grateful if you could provide pIC50 for each of the following entries.
1. Cn1ncc(Cl)c1-c1ccc(C(=O)N[C@@H]2CNCC[C@H]2c2ccc(Cl)c(C(F)(F)F)c2)nc1
2. CCc1cnn(C)c1-c1cccc(C(=O)N[C@H]2CNCC[C@@H]2c2ccc(Cl)cc2)c1Cl (racemic)

8.05
7.54
